tested on: Enterococcus faecium ATCC 700221; conditions: ATCC 700221, 24 h
Where a SMILES comes first, the peptide text is derived from it. Side-chain parts run from the residue outwards. [ ]: non-standard residue; d: D form. The star is where a group is joined. Lauroyl = CCCCCCCCCCCC(=O)*; Nle = CCCC[C@H](N)C(=O)O; Octanoyl = CCCCCCCC(=O)*
Reported Metric: MIC Enterococcus faecium ATCC 700221 (µg/mL)
Answers are plain numbers, in µg/mL.

[[record]]
compound = "CCCCCCC(CCCC)C(=O)N[C@@H](CCCNC(=N)N)C(=O)N[C@@H](CCCNC(=N)N)C(=O)N[C@@H](CSSC[C@H](NC(=O)[C@H](CCCNC(=N)N)NC(=O)[C@H](CCCNC(=N)N)NC(=O)C(CCCC)CCCCCC)C(N)=O)C(N)=O (stereo partly shown)"
tested_system = "Enterococcus faecium ATCC 700221"
reported_metric = "MIC Enterococcus faecium ATCC 700221"
unit_of_measurement = "µg/mL"
reading = 2

[[record]]
compound = "CCCCCCCCCCCC(=O)N[C@@H](CCCNC(=N)N)C(=O)N[C@@H](CCCNC(=N)N)C(=O)NCCCC[C@H](NC(=O)[C@H](CCCNC(=N)N)NC(=O)[C@H](CCCNC(=N)N)NC(=O)CCCCCCCCCCC)C(N)=O [Compound B3] (Lauroyl-Arg-Arg-Lys([Arg-Arg-Lauroyl])-NH2)"
tested_system = "Enterococcus faecium ATCC 700221"
reported_metric = "MIC Enterococcus faecium ATCC 700221"
unit_of_measurement = "µg/mL"
reading = 2


Batch of 2 compounds: report MIC Enterococcus faecium ATCC 700221 for each.
1. CCCCCCC(CCCC)C(=O)N[C@@H](CCCNC(=N)N)C(=O)N[C@@H](CCCNC(=N)N)C(=O)NCCCC[C@H](NC(=O)[C@H](CCCNC(=N)N)NC(=O)[C@H](CCCNC(=N)N)NC(=O)C(CCCC)CCCCCC)C(N)=O (stereo partly shown)
2. CCCCCCCC(=O)N[C@@H](CCCC)C(=O)N[C@@H](CCCNC(=N)N)C(=O)N[C@@H](CCCNC(=N)N)C(=O)NCCCC[C@H](NC(=O)[C@H](CCCNC(=N)N)NC(=O)[C@H](CCCNC(=N)N)NC(=O)[C@H](CCCC)NC(=O)CCCCCCC)C(N)=O [Compound B6] (Octanoyl-[Nle]RRK([Arg-Arg-Nle-Octanoyl])-NH2)

A.
1: 1; 2: 2
